Target: Fuc(b1-3)GlcNAc
Assay: glycan array binding signal (z-score within array); higher = stronger binding
Conditions: glycan notation: IUPAC condensed, linker removed
Only a selection was taken, and the strongest signals are over-represented in it overall.
observed.property: glycan array binding signal (z-score)
Answers are plain numbers.

[[record]]
binder = "BTL (Bryothamnion triquetrum) (protein) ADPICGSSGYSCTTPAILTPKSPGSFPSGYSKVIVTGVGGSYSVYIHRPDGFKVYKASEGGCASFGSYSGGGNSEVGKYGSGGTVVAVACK"
test_value = -0.257


Go through the items and report each one's glycan array binding signal (z-score).
1. Crocus Lectin (Crocus vernus), Q9FVA1 (protein) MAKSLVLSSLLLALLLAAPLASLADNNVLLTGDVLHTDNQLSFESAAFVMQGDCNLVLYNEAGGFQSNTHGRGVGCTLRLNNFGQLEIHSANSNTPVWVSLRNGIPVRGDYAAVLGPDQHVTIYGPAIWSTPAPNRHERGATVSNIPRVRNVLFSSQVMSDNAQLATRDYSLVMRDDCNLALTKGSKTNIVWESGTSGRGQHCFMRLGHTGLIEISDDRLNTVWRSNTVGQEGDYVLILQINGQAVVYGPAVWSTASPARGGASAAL
2. CSA (Cytisus scoparius), P29257 (protein) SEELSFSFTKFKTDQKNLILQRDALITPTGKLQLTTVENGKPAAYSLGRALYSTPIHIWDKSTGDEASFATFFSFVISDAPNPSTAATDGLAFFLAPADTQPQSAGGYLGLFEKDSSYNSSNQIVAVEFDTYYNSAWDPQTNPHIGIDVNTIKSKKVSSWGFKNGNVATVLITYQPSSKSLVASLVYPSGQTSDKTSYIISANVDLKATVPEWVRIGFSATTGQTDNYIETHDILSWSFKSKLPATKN

1: -0.163; 2: -0.186

// data source = the supplement of paper PMC8728848
